SYSTEM: ATP-binding cassette sub-family C member 2 (Rattus norvegicus)
Sequence (Q63120 whole entry): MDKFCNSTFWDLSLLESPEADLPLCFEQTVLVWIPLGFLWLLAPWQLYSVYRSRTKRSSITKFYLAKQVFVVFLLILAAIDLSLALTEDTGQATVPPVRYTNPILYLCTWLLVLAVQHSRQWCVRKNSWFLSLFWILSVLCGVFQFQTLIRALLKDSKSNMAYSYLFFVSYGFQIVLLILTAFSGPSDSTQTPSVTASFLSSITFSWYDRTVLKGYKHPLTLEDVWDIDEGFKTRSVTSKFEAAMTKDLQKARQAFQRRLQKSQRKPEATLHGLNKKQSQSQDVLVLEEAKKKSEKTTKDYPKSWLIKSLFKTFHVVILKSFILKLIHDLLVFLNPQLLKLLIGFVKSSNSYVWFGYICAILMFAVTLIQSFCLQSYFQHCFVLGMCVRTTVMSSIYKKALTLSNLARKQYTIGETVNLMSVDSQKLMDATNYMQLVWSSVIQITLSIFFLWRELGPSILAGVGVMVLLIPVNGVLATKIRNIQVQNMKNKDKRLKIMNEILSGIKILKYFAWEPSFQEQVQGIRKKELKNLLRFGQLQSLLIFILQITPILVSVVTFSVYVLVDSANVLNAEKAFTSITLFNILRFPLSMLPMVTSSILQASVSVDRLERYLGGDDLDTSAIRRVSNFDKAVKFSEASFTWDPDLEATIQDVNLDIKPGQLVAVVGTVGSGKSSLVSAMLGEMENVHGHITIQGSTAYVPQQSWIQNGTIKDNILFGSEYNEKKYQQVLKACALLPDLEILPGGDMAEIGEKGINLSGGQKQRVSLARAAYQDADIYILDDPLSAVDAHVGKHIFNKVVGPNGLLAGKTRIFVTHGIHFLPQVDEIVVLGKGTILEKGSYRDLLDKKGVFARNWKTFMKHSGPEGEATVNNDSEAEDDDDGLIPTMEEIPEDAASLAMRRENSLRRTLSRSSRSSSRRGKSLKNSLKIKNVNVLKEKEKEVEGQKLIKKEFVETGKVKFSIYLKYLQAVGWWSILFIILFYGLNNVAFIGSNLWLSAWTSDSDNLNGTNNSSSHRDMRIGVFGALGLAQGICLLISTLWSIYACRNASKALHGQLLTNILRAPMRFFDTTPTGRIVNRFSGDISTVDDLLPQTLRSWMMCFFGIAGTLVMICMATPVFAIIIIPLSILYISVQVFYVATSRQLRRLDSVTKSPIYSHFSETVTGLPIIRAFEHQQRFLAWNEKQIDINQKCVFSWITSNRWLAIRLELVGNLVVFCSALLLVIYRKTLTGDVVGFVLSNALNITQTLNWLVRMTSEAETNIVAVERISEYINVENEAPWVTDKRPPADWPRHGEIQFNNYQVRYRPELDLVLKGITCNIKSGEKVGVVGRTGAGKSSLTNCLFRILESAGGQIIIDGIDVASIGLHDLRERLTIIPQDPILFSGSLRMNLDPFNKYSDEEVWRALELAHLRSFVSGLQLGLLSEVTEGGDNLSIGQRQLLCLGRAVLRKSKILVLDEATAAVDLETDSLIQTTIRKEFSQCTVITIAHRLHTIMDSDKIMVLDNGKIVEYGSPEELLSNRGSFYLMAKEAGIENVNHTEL
RUN_DESCRIPTION: TP_TRANSPORTER: inhibition of E217betaG uptake in canalicular membrane vesicles of rat liver
Type: functional, cell membranes, Canalicular membrane vesicle
MEASURE_NAME: Ki (µM)
Answers are plain numbers, in µM.

Value of Ki reported for the compound CC(=O)O[C@H]1C[C@@]2(C)[C@@H](C[C@@H](O)[C@H]3[C@@]4(C)CC[C@@H](O)[C@@H](C)[C@@H]4CC[C@@]32C)/C1=C(\CCC=C(C)C)C(=O)O [FUSIDIC ACID] is 7.6

====

SYSTEM: ATP-binding cassette sub-family C member 2 (Rattus norvegicus)
RUN_DESCRIPTION: TP_TRANSPORTER: inhibition of LTC4 uptake in canalicular membrane vesicles of rat liver
Assay type: functional, cell membranes, Canalicular membrane vesicle
MEASURE_NAME: Ki (µM)
Answers are plain numbers, in µM.

Value of Ki reported for the compound CC(=O)O[C@H]1C[C@@]2(C)[C@@H](C[C@@H](O)[C@H]3[C@@]4(C)CC[C@@H](O)[C@@H](C)[C@@H]4CC[C@@]32C)/C1=C(\CCC=C(C)C)C(=O)O [FUSIDIC ACID] is 5.5
